- ASSAYED_TARGET: T1, PUF4 RNA-binding domain (Saccharomyces cerevisiae, UniProt P25339 537-888)
- T1 sequence: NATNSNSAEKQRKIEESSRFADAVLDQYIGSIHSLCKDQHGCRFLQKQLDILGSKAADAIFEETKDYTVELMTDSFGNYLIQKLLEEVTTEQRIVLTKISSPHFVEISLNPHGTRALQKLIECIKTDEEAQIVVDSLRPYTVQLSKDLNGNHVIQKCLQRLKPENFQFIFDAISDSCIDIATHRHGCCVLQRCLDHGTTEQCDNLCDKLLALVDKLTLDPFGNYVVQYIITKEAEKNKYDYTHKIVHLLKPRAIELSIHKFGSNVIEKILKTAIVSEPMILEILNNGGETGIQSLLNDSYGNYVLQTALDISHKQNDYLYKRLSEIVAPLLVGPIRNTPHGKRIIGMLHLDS
- ASSAY_EXPLANATION: Mg; RNA-MaP; 20 mM Na-HEPES pH 7.4, 30 mM KOAc, 0.75 mM MgCl2, 0.1% Tween-20, 5% glycerol, 0.1 mg/mL BSA, 2 mM DTT; 25 C; 0.0125-409.6 nM protein
- SETUP_CONDITIONS: tags: N-His6-TEV cleaved; C-SNAP kept, Cy3B-labelled; label: tethered on chip by stalled RNA polymerase
pKd: −log10 of the molar value.
Parameter: pKd. Scope: all listed entries.
MEASURED_PROPERTY: pKd

Id_ii_S4_P4E.4_K4.3_C4.2_H4.3_A4.1_F4.1_T4.2_[G10A]_[T11C] (ssRNA) RNA: UUUGACAACUGAUCGUUCUUUCUCUACACUAUUAACUUCUUUCUCGAUCAGUUGUCUUU
5.92
UCUCUUAAUGUAUAUAUGUCUCUU (ssRNA) [Id_ii_S1_P3E.2_K3.1_C3.2_[C-2A]_[T-1A]_H3.1_A3.1_F3.1_T3.2_[A10G]]
7.90
UCUCUUUGUACACGUCUCUU (ssRNA) [Ic_S1_P3E.1_K3.1_C3.1_H3.1_A3.1_[T5C]_F3.1_[T7C]_[A8G]_T3.1]
7.57
ACAAACUGUAUUACCUUUAACAAAC (ssRNA) [Ie_S3_P5E.1_K5.1_C5.1_H5.1_A5.1_[+7CCT]_F5.1_T5.1]
6.65
Id_ii_S2_P3E.4_K3.3_C3.2_[C-2A]_H3.3_A3.1_F3.1_T3.2_[T9A]_[A10T] (ssRNA) RNA: UUUGAUUAAUAUGAUAUCGUUCUUUCUAUACACUAUAAUUUCUUUCUCGAUAUCAUAUUAAUCUUU
7.49
Ic_S2_P5E.1_K5.1_C5.1_H5.1_A5.1_[T5A]_[T6C]_[A7C]_F5.1_[T8G]_T5.1 (ssRNA) RNA: UUUGAUUAAUAUGAUAUCGUUCUUUCUUGUAACCGUAUUCUUUCUCGAUAUCAUAUUAAUCUUU
7.89
UCUCUUACUGUAUAUUAUGUCUCUU (ssRNA) [Id_ii_S1_P4E.2_K4.1_C4.2_[C-2A]_[T-1C]_H4.1_A4.1_F4.1_T4.2_[G10T]_[T11G]]
8.87
UCUCUUAAUAUAUAUACGUCUCUU (ssRNA) [Id_ii_S1_P3E.3_K3.2_C3.2_[C-2A]_[T-1A]_H3.2_A3.1_F3.1_T3.2_[T9C]_[A10G]]
5.70
Ie_S4_P5E.1_K5.1_C5.1_H5.1_A5.1_[+7CTCTC]_F5.1_T5.1 (ssRNA) RNA: UUUGACAACUGAUCGUUCUUUCUUGUAUUACUCUCUUAUUCUUUCUCGAUCAGUUGUCUUU
7.54
Ib_S2_P4E.1_K4.1_C4.1_H4.1_[A4G]_A4.1_F4.1_[T8A]_T4.1 (ssRNA) RNA: UUUGAUUAAUAUGAUAUCGUUCUUUCUUGUGUAUAAUUCUUUCUCGAUAUCAUAUUAAUCUUU
8.42
UCUCUUCAUGUAUAUUAGUUCUCUU (ssRNA) [Id_ii_S1_P4E.2_K4.1_C4.2_[T-1A]_H4.1_A4.1_F4.1_T4.2]
9.49
Id_ii_S2_P5E.3_K5.2_C5.2_[T-1A]_H5.2_A5.1_F5.1_T5.2_[T11A]_[A12T] (ssRNA) RNA: UUUGAUUAAUAUGAUAUCGUUCUUUCUCAUAUAUUAUUAAUUUCUUUCUCGAUAUCAUAUUAAUCUUU
6.88
Id_ii_S2_P5E.2_K5.1_C5.2_[C-2A]_H5.1_A5.1_F5.1_T5.2_[T11A]_[A12T] (ssRNA) RNA: UUUGAUUAAUAUGAUAUCGUUCUUUCUAUUGUAUUAUUAAUUUCUUUCUCGAUAUCAUAUUAAUCUUU
8.24
ACAAACUCUAUAUAUAACACAAAC (ssRNA) [Id_ii_S3_P3E.3_K3.2_C3.2_[C-2T]_[T-1C]_H3.2_A3.1_F3.1_T3.2_[T9A]_[A10C]]
6.22
Ib_S2_P4E.1_K4.1_C4.1_H4.1_[T3C]_A4.1_[T7G]_F4.1_T4.1 (ssRNA) RNA: UUUGAUUAAUAUGAUAUCGUUCUUUCUUGCAUAGUAUUCUUUCUCGAUAUCAUAUUAAUCUUU
6.21
Id_iii_S2_P3E.7_K3.3_C3.3_H3.3_A3.1_F3.1_T3.2_[A10C] (ssRNA) RNA: UUUGAUUAAUAUGAUAUCGUUCUUUCUUCUACACUAUAUCUUCUUUCUCGAUAUCAUAUUAAUCUUU
6.31
Ic_S4_P4E.1_K4.1_C4.1_H4.1_A4.1_[T5G]_[A6C]_[T7A]_F4.1_[T8G]_[A9T]_T4.1 (ssRNA) RNA: UUUGACAACUGAUCGUUCUUUCUUGUAGCAGUUUCUUUCUCGAUCAGUUGUCUUU
6.31
Ic_S2_P3E.1_K3.1_C3.1_H3.1_A3.1_[T5A]_[A6T]_F3.1_[A8C]_T3.1 (ssRNA) RNA: UUUGAUUAAUAUGAUAUCGUUCUUUCUUGUAAUUCUUCUUUCUCGAUAUCAUAUUAAUCUUU
6.92
Id_ii_S2_P3E.3_K3.2_C3.2_[C-2G]_[T-1C]_H3.2_A3.1_F3.1_T3.2_[T9A]_[A10C] (ssRNA) RNA: UUUGAUUAAUAUGAUAUCGUUCUUUCUGCUAUAUAUAACUUCUUUCUCGAUAUCAUAUUAAUCUUU
6.23
UCUCUUGCACACUAUUACAUCUCUU (ssRNA) [Id_ii_S1_P4E.4_K4.3_C4.2_[C-2G]_[T-1C]_H4.3_A4.1_F4.1_T4.2_[G10C]_[T11A]]
7.00
Ib_S2_P3E.1_K3.1_C3.1_H3.1_[A4C]_A3.1_[T5A]_F3.1_T3.1 (ssRNA) RNA: UUUGAUUAAUAUGAUAUCGUUCUUUCUUGUCAAUAUUCUUUCUCGAUAUCAUAUUAAUCUUU
5.87
Ic_S2_P3E.1_K3.1_C3.1_H3.1_A3.1_[T5G]_[A6T]_F3.1_T3.1 (ssRNA) RNA: UUUGAUUAAUAUGAUAUCGUUCUUUCUUGUAGUUAUUCUUUCUCGAUAUCAUAUUAAUCUUU
6.74
ACAAACCAUAUAUAUAACACAAAC (ssRNA) [Id_ii_S3_P3E.3_K3.2_C3.2_[T-1A]_H3.2_A3.1_F3.1_T3.2_[T9A]_[A10C]]
6.14
